# assayedSystem: ER in MCF-7 cells (Homo sapiens (Human))
# Sequence (P03372 whole entry): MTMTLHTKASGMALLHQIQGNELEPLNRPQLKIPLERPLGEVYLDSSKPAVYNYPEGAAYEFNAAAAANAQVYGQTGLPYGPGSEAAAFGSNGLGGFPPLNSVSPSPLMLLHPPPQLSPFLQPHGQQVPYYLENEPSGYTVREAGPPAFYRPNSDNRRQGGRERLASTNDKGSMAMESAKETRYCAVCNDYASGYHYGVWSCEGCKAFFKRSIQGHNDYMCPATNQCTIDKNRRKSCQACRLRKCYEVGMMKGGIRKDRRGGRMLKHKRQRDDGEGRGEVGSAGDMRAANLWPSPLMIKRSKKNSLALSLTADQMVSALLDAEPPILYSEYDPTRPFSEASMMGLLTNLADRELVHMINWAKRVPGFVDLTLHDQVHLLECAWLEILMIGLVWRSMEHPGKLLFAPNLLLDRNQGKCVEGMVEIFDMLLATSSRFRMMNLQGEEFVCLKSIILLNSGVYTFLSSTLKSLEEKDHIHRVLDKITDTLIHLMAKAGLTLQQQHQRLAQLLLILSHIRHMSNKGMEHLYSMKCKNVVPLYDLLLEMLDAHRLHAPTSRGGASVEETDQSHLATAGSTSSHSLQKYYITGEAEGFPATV
# protocol: In-cell Western (ICW) ER degradation assay in MCF-7 cells
# Type: cell-based
# settings: MCF-7, ER degradation, 16 hrs treatment; read-out: MCF7 DC50
Quick list: DC50 per entry.

Here are 5 molecules together with their reported answers.
Request: // Input: O=C1CC[C@H](N2Cc3cc4c(cc3C2=O)OCC42CCN(CC3CC4(CCN(c5cnc(C6c7ccc(O)cc7CCC6c6ccccc6)cn5)CC4)C3)CC2)C(=O)N1 (stereo partly shown) . Output its DC50 only.
Response: < 1 nM

Request: // Input: `COc1cc(N2CC3(CCC(CN4CCC5(CC4)COc4c5ccc5c4CN([C@H]4CCC(=O)NC4=O)C5=O)CC3)C2)c(F)cc1[C@H]1c2ccc(O)cc2CC[C@H]1c1ccccc1` . Output its DC50 only.
Response: 1 to 10 nM

Request: // Input: `O=C1CC[C@H](N2Cc3c(ccc4c3OCC43CCN(CC4CCC5(CC4)CN(c4ccc([C@H]6c7ccc(O)cc7CC[C@H]6c6ccccc6)cc4F)C5)CC3)C2=O)C(=O)N1` . Output its DC50 only.
Response: 10 to 100 nM

Request: // Input: O=C1CC[C@H](N2Cc3c(ccc4c3OC[C@H]3CN(CC5CC6(CCN(c7cnc(C8c9ccc(O)cc9CCC8c8ccccc8)cn7)CC6)C5)CCN43)C2=O)C(=O)N1 (stereo partly shown) . Output its DC50 only.
Response: < 1 nM

Request: // Input: O=C1CC[C@H](N2Cc3c(ccc4c3OC[C@H]3CN(C[C@H]5COC6(C5)CN(c5ccc([C@@H]7c8ccc(O)cc8CC[C@@H]7c7ccccc7)cc5)C6)CCN43)C2=O)C(=O)N1 (single isomer, unassigned) . Output its DC50 only.
Response: < 1 nM

***
Request: // Input: COc1cc(N2CCC3(CC2)CC(CN2CCN4c5cc6c(cc5OC[C@@H]4C2)C(=O)N([C@H]2CCC(=O)NC2=O)C6)CO3)ccc1[C@H]1c2ccc(O)cc2CC[C@H]1c1ccccc1 (single isomer, unassigned) . Output its DC50 only.
Response: < 1 nM

Request: // Input: `COc1cc(N2CC(CCN3CCC4(CC3)COc3cc5c(cc34)CN([C@H]3CCC(=O)NC3=O)C5=O)C2)c(F)cc1[C@@H]1c2ccc(O)cc2CC[C@@H]1c1ccccc1` . Output its DC50 only.
Response: 1 to 10 nM

Request: // Input: O=C1CC[C@H](N2Cc3c(ccc4c3OC[C@H]3CN(CC5CCC6(CC5)CN(c5ccc([C@@H]7c8ccc(O)cc8CC[C@@H]7c7ccccc7)cn5)C6)CCN43)C2=O)C(=O)N1 (single isomer, unassigned) . Output its DC50 only.
Response: < 1 nM

Request: // Input: `O=C1CC[C@@H](Nc2ccc([C@@]34CCN(CC5CC6(CCN(c7ccc([C@@H]8c9ccc(O)cc9CC[C@@H]8c8ccccc8)cc7)CC6)C5)C[C@@H]3C4(F)F)cc2)C(=O)N1` . Output its DC50 only.
Response: 1 to 10 nM

Request: // Input: COc1cc(C(=O)NC2CCC(=O)NC2=O)ncc1N1CCN(CC2CCN(c3ccc([C@@H]4c5ccc(O)cc5CC[C@@H]4c4ccccc4)cc3)CC2)CC1 (stereo partly shown) . Output its DC50 only.
Response: < 1 nM
